Entry source: patent US7582660B2

Provide the recorded log10 of IC50 for the entries that follow.
target: p 38 (Homo sapiens); experiment: Kinase assay (activated p38a, ATF2 substrate, ELISA readout); format: biochemical; conditions: ATF2, 100 μM ATP
Sequence (Q16539 whole entry): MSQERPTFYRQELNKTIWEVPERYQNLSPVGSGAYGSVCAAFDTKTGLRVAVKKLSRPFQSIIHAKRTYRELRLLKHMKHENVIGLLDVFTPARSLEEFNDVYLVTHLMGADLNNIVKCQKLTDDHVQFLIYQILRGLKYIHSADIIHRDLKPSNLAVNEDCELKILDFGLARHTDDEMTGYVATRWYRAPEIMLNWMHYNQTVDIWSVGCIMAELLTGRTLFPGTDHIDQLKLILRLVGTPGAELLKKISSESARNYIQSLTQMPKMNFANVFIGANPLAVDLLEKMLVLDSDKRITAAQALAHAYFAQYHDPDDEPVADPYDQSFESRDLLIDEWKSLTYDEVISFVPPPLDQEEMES
log10 IC50, µM

Item Fc1ccc(-c2nc(SCc3ccccc3)[nH]c2-c2ccnc(F)c2)cc1 [Compound 26b] has what recorded log10 of IC50?
0.62

Item Fc1ccc(-c2nc(SCc3ccccc3)[nH]c2-c2ccnc(NCc3ccccc3)c2)cc1 [Compound 26c] has what recorded log10 of IC50?
0.15

Item CSc1nc(-c2ccc(F)cc2)c(-c2ccnc(NCc3ccc(Cl)cc3)c2)[nH]1 [Compound 25i] has what recorded log10 of IC50?
-0.02

Item CC(Nc1cc(-c2[nH]c(SCc3ccccc3)nc2-c2ccc(F)cc2)ccn1)c1ccccc1 (racemic) [Compound 26d] has what recorded log10 of IC50?
-0.42

Item CSc1nc(-c2ccc(F)cc2)c(-c2ccnc(OC(C)C)c2)[nH]1 [Compound 25c] has what recorded log10 of IC50?
0.94

Item CSc1nc(-c2ccc(F)cc2)c(-c2ccnc(NCCc3ccccc3)c2)[nH]1 [Compound 25l] has what recorded log10 of IC50?
-0.62

Item CSc1nc(-c2ccc(F)cc2)c(-c2ccnc(NCc3ccc(Cl)c(Cl)c3)c2)[nH]1 [Compound 25j] has what recorded log10 of IC50?
-0.15

Item CSc1nc(-c2ccc(F)cc2)c(-c2ccnc(F)c2)[nH]1 [Compound 25b] has what recorded log10 of IC50?
0.58

Item CSc1nc(-c2ccc(F)cc2)c(-c2ccnc(NCc3ccccc3)c2)[nH]1 [Compound 25f] has what recorded log10 of IC50?
-0.19

Item COc1ccc(CNc2cc(-c3[nH]c(SC)nc3-c3ccc(F)cc3)ccn2)cc1 [Compound 25g] has what recorded log10 of IC50?
-0.10

Item C[S+]([O-])c1ccc(CSc2nc(-c3ccc(F)cc3)c(-c3ccnc(F)c3)[nH]2)cc1 (stereo not drawn) [Compound 27b] has what recorded log10 of IC50?
0.97

Item CC(Nc1cc(-c2[nH]c(SCc3ccc([S+](C)[O-])cc3)nc2-c2ccc(F)cc2)ccn1)c1ccccc1 (racemic) [Compound 27d] has what recorded log10 of IC50?
-0.57

Item C[S+]([O-])c1ccc(CSc2nc(-c3ccc(F)cc3)c(-c3ccnc(NCc4ccccc4)c3)[nH]2)cc1 (stereo not drawn) [Compound 27c] has what recorded log10 of IC50?
0.16

Item CSc1nc(-c2ccc(F)cc2)c(-c2ccnc(NCc3ccc(C)cc3)c2)[nH]1 [Compound 25h] has what recorded log10 of IC50?
-0.08

Item CSc1nc(-c2ccc(F)cc2)c(-c2ccnc(Nc3ccccc3)c2)[nH]1 [Compound 25k] has what recorded log10 of IC50?
-0.89

====

system: IL-1β; experiment: In vitro test with PBMCs, LPS-stimulated IL-1β release (ELISA); type: cell-based; conditions: PBMC; human PBMCs, LPS 4 hours; read-out: IC50 (μM) PBMCA IL-1β
Provide the recorded IC50 for the entries that follow.
Kindly provide the numeric value in µM only, without the unit symbol.

Item COc1cc(-c2[nH]c(SC)nc2-c2ccc(F)cc2)ccn1 [Compound 25d] has what recorded IC50?
0.15

Item CSc1nc(-c2ccc(F)cc2)c(-c2ccnc(OC(C)C)c2)[nH]1 [Compound 25c] has what recorded IC50?
2.7

Item CC(Nc1cc(-c2[nH]c(SCc3ccc([S+](C)[O-])cc3)nc2-c2ccc(F)cc2)ccn1)c1ccccc1 (racemic) [Compound 27d] has what recorded IC50?
0.04

Item Fc1ccc(-c2nc(SCc3ccccc3)[nH]c2-c2ccnc(F)c2)cc1 [Compound 26b] has what recorded IC50?
2.9

Item CSc1nc(-c2ccc(F)cc2)c(-c2cc[nH]c(=O)c2)[nH]1 [Compound 25e] has what recorded IC50?
0.5

Item CSc1nc(-c2ccc(F)cc2)c(-c2ccnc(Cl)c2)[nH]1 [Compound 25a] has what recorded IC50?
0.35

Item C[S+]([O-])c1ccc(CSc2nc(-c3ccc(F)cc3)c(-c3ccnc(NCc4ccccc4)c3)[nH]2)cc1 (centres unmarked) [Compound 27c] has what recorded IC50?
0.47

Item CC(Nc1cc(-c2[nH]c(SCc3ccccc3)nc2-c2ccc(F)cc2)ccn1)c1ccccc1 (racemic) [Compound 26d] has what recorded IC50?
0.045

Item CSc1nc(-c2ccc(F)cc2)c(-c2ccnc(Nc3ccccc3)c2)[nH]1 [Compound 25k] has what recorded IC50?
0.03

Item CSc1nc(-c2ccc(F)cc2)c(-c2ccnc(NCc3ccc(Cl)cc3)c2)[nH]1 [Compound 25i] has what recorded IC50?
0.15

Item COc1ccc(CNc2cc(-c3[nH]c(SCc4ccccc4)nc3-c3ccc(F)cc3)ccn2)cc1 [Compound 26e] has what recorded IC50?
0.18

Item CSc1nc(-c2ccc(F)cc2)c(-c2ccnc(NCCc3ccccc3)c2)[nH]1 [Compound 25l] has what recorded IC50?
0.031

Item C[S+]([O-])c1ccc(CSc2nc(-c3ccc(F)cc3)c(-c3ccnc(F)c3)[nH]2)cc1 (centres unmarked) [Compound 27b] has what recorded IC50?
2.45

Item CSc1nc(-c2ccc(F)cc2)c(-c2ccnc(NCc3ccc(C)cc3)c2)[nH]1 [Compound 25h] has what recorded IC50?
0.085

Item Fc1ccc(-c2nc(SCc3ccccc3)[nH]c2-c2ccnc(NCc3ccccc3)c2)cc1 [Compound 26c] has what recorded IC50?
0.2

Item COc1ccc(CNc2cc(-c3[nH]c(SC)nc3-c3ccc(F)cc3)ccn2)cc1 [Compound 25g] has what recorded IC50?
0.056

Item CSc1nc(-c2ccc(F)cc2)c(-c2ccnc(NCc3ccc(Cl)c(Cl)c3)c2)[nH]1 [Compound 25j] has what recorded IC50?
0.23

Item Fc1ccc(-c2nc(SCc3ccccc3)[nH]c2-c2ccnc(Cl)c2)cc1 [Compound 26a] has what recorded IC50?
1.8

Item C[S+]([O-])c1ccc(CSc2nc(-c3ccc(F)cc3)c(-c3ccnc(Cl)c3)[nH]2)cc1 (centres unmarked) [Compound 27a] has what recorded IC50?
2.1

Item CSc1nc(-c2ccc(F)cc2)c(-c2ccnc(F)c2)[nH]1 [Compound 25b] has what recorded IC50?
0.3
